Biological target: T1, human IgG3 (human, UniProt P01860-1 1-377)
T1 construct: bought preparation coated on the ELISA plate; not shown: bought immunoglobulin, light chain not described
T1 sequence (P01860 other isoform, or with tags, fused parts or gaps): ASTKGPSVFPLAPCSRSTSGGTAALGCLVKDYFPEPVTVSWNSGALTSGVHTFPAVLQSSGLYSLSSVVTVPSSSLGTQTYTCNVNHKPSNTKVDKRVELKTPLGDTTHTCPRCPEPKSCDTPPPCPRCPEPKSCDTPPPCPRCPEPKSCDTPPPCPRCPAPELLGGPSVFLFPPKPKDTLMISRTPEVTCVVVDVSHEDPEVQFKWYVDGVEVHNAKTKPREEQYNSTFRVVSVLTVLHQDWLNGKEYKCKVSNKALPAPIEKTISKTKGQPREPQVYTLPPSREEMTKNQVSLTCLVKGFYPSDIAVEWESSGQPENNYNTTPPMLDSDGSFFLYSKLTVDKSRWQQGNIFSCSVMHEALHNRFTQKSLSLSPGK
Assay: ELISA, immunoglobulin coated at 4 µg/mL, anti-human IgG2 detection
observed-property: A290 nm (absorbance)
Give the value in absorbance but do not write absorbance after it.

Past entries and their recorded results:
recombinant 6.605.1 (antibody, human IgG2, kappa, V domains shown, human IgG2 kappa; also called 6.605.1 (recombinant)) VH: QVHLVQSGAEVKMPGASVKVSCKASGYTFTSYGISWVRQAPGQGLEWMGWISAYNGNTNYAQKLQGRITMTTDTSTSTAYMDLRSLRSDDTAVYYCARDGDYYDPFDYWGQGTLVTVSS VL: DIQMTQSPSSLSASVGDRVTITCRTSQSISNWLNWYQQKPGKAPKLLIYGASTLKSGVPSRFSGSESGTDFTLTISSLQPEDFATYYCQQSYSTPPTFGQGTKVEIKR
0.05
recombinant 5.396.1 (antibody, human IgG2, kappa, V domains shown, human IgG2 kappa, expressed in 293 Freestyle cells; also called 5.396.1 (recombinant)) VH: QVQLQQWGAGLLKPSETLSLTCAVYGGSFSGYYWSWIRQPPGKGLEWIGEIHHSGSTNYNPSLKSRVTISVDTSKNQFSLKLSSVTAADTAVYYCARDNWNDSFYYYYGMDVWGQGTTVTVSS VL: DIQMTQSPSSLSASVGDRVTITCRASQGISNHLAWFQQKPGKAPKSLIYAASSLQSGVPSKFSGSGSGTDFTLTISSLQPEDFATYYCQQYNRHPFTFGPGTKVDIKR
0.05

Here is the next item to consider.
Consider the binder shown here: 6.605.1 Hc-H3Q,M13K,D82E Lc-T25A,T53S (antibody, human IgG2, kappa, V domains shown, human IgG2 kappa; the entries already hold the substitutions; also called 6.605.1 (H3Q,M13K,D82E-T25A,T53S); 6.605.1 QKE/AS) VH: QVQLVQSGAEVKKPGASVKVSCKASGYTFTSYGISWVRQAPGQGLEWMGWISAYNGNTNYAQKLQGRITMTTDTSTSTAYMELRSLRSDDTAVYYCARDGDYYDPFDYWGQGTLVTVSS VL: DIQMTQSPSSLSASVGDRVTITCRASQSISNWLNWYQQKPGKAPKLLIYGASSLKSGVPSRFSGSESGTDFTLTISSLQPEDFATYYCQQSYSTPPTFGQGTKVEIKR What is its recorded A290 nm?
0.04
